Substrate: O=[N+]([O-])c1ccc2c(c1)OCO2
Test name: purified protein
Assay type: biochemical, Thermothelomyces thermophilus
Assay context: H2O2 as saturating co-substrate; 20 nM enzyme; standard deviation <18%
I'd be grateful if you could share measured Km for these entries.
Report as a plain number; the unit µM is understood.

# input protein: MthUPO (Thermothelomyces thermophilus ATCC 42464) (protein, secreted from S. cerevisiae, purified; 245 AA plus C-terminal TwinStrep-GFP11 tag; heme-thiolate) AGFDTWSPPGPYDVRAPCPMLNTLANHGFLPHDGKDITREQTENALFEALHINKTLASFLFDFALTTNPKNTSTFSLNDLGNHNILEHDASLSRADAYFGNVLQFNQTVFDETKTYWEGDTIDLRMAAKARLGRIKTSQATNPTYSMSELGDAFTYGESAAYVVVLGDKESRTVKRSWVEWFFEHEQLPQHLGWKRPAASFEEEDLNSSMEEIEKYTKELEGSNSTSGSQKHRRRLPRRRAHFGF ; wanted: its Km
386

Would you kindly repeat that for MthUPO (Thermothelomyces thermophilus ATCC 42464; A177F/L76F/S175G) (protein, secreted from S. cerevisiae, purified; 245 AA plus C-terminal TwinStrep-GFP11 tag; heme-thiolate) AGFDTWSPPGPYDVRAPCPMLNTLANHGFLPHDGKDITREQTENALFEALHINKTLASFFFDFALTTNPKNTSTFSLNDLGNHNILEHDASLSRADAYFGNVLQFNQTVFDETKTYWEGDTIDLRMAAKARLGRIKTSQATNPTYSMSELGDAFTYGEGAFYVVVLGDKESRTVKRSWVEWFFEHEQLPQHLGWKRPAASFEEEDLNSSMEEIEKYTKELEGSNSTSGSQKHRRRLPRRRAHFGF ?
422

Would you kindly repeat that for MthUPO (Thermothelomyces thermophilus ATCC 42464; F170A/F75Q/L76M/S175G) (protein, secreted from S. cerevisiae, purified; 245 AA plus C-terminal TwinStrep-GFP11 tag; heme-thiolate) AGFDTWSPPGPYDVRAPCPMLNTLANHGFLPHDGKDITREQTENALFEALHINKTLASQMFDFALTTNPKNTSTFSLNDLGNHNILEHDASLSRADAYFGNVLQFNQTVFDETKTYWEGDTIDLRMAAKARLGRIKTSQATNPTYSMSELGDAATYGEGAAYVVVLGDKESRTVKRSWVEWFFEHEQLPQHLGWKRPAASFEEEDLNSSMEEIEKYTKELEGSNSTSGSQKHRRRLPRRRAHFGF ?
290

Would you kindly repeat that for MthUPO (Thermothelomyces thermophilus ATCC 42464; F75Q/L76F/S175G) (protein, secreted from S. cerevisiae, purified; 245 AA plus C-terminal TwinStrep-GFP11 tag; heme-thiolate) AGFDTWSPPGPYDVRAPCPMLNTLANHGFLPHDGKDITREQTENALFEALHINKTLASQFFDFALTTNPKNTSTFSLNDLGNHNILEHDASLSRADAYFGNVLQFNQTVFDETKTYWEGDTIDLRMAAKARLGRIKTSQATNPTYSMSELGDAFTYGEGAAYVVVLGDKESRTVKRSWVEWFFEHEQLPQHLGWKRPAASFEEEDLNSSMEEIEKYTKELEGSNSTSGSQKHRRRLPRRRAHFGF ?
303
